Values were extracted from ChEMBL document CHEMBL1133492.

Listed here: items and their measured log10(IC50).
tested on: CCRF-CEM; assay: Cytotoxicity in the absence of thymidine and hypoxanthine against CCRF-CEM cell line; format: functional, cell-based; conditions: Homo sapiens
measured attribute: log10(IC50) (log10 of the value in µM)

[[record]]
item_smiles = "COC(=O)c1ccc(CN(CCCc2c(N)nc(N)nc2O)c2cc(F)c([N+](=O)[O-])cc2[N+](=O)[O-])cc1"
measurement = 0.40

[[record]]
item_smiles = "COC(=O)c1ccc(CN(CCCc2c(N)nc(N)nc2O)c2cc(F)ccc2[N+](=O)[O-])cc1"
measurement = 1.65

[[record]]
item_smiles = "Nc1nc(N)c(CCCNc2ccc([N+](=O)[O-])c(F)c2F)c(O)n1"
measurement = 1.88

[[record]]
item_smiles = "COC(=O)c1ccc(CN(CCc2c(N)nc(N)nc2O)c2cc(F)ccc2[N+](=O)[O-])cc1"
measurement = 1.86

[[record]]
item_smiles = "COC(=O)c1ccc(CN(CCc2c(N)nc(N)nc2O)c2ccc([N+](=O)[O-])c(F)c2F)cc1"
measurement = 1.68

[[record]]
item_smiles = "COC(=O)c1ccc(CN(CCc2c(N)nc(N)nc2O)c2cc(F)c(F)cc2[N+](=O)[O-])cc1"
measurement = 1.08

[[record]]
item_smiles = "COC(=O)c1ccc(CN(CCc2c(N)nc(N)nc2O)c2cc(F)c([N+](=O)[O-])cc2[N+](=O)[O-])cc1"
measurement = 0.11


----------
Molecular target: Trifunctional purine biosynthetic protein adenosine-3 (Homo sapiens)
Sequence (whole entry): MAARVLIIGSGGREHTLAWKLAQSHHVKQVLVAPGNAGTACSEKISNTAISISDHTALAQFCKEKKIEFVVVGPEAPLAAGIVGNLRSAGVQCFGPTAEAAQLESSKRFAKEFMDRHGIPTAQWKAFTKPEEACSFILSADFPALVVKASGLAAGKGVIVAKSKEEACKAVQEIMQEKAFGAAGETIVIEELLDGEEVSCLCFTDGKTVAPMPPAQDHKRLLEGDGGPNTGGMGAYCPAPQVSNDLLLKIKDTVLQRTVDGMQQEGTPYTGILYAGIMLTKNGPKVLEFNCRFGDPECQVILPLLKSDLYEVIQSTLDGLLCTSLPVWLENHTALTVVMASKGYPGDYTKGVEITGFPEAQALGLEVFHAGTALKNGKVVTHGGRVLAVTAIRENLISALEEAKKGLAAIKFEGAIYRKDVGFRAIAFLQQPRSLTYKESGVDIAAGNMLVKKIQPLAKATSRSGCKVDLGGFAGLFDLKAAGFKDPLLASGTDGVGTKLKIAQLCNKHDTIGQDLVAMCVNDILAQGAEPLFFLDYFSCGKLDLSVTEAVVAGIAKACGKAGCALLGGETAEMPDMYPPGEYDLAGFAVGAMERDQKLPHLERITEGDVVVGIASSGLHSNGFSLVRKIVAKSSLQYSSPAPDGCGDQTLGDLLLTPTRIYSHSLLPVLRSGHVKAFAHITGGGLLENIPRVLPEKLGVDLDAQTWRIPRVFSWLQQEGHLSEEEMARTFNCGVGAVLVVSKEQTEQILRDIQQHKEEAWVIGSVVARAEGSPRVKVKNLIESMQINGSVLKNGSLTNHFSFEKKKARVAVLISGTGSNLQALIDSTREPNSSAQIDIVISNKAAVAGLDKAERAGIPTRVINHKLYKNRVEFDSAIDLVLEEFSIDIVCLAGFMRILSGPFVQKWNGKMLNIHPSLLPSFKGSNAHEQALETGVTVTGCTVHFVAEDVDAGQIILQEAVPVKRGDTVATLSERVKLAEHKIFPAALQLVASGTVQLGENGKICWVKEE
Assay: In vitro inhibitory activity against Glycinamide ribonucleotide transformylase (GAR Tfase+GAR) following 3 min pre-incubation at 250 uM concentration
measured attribute: inhibition (%)

[[record]]
item_smiles = "COC(=O)c1ccc(CN(CCc2c(N)nc(N)nc2O)c2cc(F)c(F)cc2[N+](=O)[O-])cc1"
system = "Trifunctional purine biosynthetic protein adenosine-3 (Homo sapiens)"
measured_attribute = "inhibition"
unit_string = "%"
measurement = 35

[[record]]
item_smiles = "COC(=O)c1ccc(CN(CCCc2c(N)nc(N)nc2O)c2ccc([N+](=O)[O-])c(F)c2F)cc1"
system = "Trifunctional purine biosynthetic protein adenosine-3 (Homo sapiens)"
measured_attribute = "inhibition"
unit_string = "%"
measurement = 82

[[record]]
item_smiles = "Nc1nc(N)c(CCCNc2cc(F)c([N+](=O)[O-])cc2[N+](=O)[O-])c(O)n1"
system = "Trifunctional purine biosynthetic protein adenosine-3 (Homo sapiens)"
measured_attribute = "inhibition"
unit_string = "%"
measurement = 100


----------
target: Bifunctional purine biosynthesis protein ATIC (Homo sapiens); experiment: In vitro inhibitory activity against Aminoimidazole carboxamide ribonucleotide transformylase pre-incubed for 12 hr at 250 uM
Sequence (P31939 whole entry, looked up): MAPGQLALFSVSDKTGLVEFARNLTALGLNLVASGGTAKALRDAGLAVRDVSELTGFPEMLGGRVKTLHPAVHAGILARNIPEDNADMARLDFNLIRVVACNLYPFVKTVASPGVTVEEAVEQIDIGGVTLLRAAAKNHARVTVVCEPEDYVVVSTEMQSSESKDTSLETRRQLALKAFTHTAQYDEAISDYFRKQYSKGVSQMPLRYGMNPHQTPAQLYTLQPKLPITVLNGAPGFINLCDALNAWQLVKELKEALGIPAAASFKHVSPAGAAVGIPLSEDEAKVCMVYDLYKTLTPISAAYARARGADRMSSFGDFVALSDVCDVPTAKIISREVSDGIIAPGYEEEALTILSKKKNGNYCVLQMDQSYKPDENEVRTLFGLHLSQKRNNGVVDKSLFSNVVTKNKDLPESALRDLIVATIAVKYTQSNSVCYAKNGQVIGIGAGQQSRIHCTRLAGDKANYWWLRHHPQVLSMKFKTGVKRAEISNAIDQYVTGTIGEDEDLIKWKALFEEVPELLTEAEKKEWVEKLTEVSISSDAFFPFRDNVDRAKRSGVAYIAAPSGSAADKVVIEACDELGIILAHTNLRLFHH
Overview of recorded inhibition for various molecules
measured attribute: inhibition (%)

[[record]]
item_smiles = "COC(=O)c1ccc(CN(CCc2c(N)nc(N)nc2O)c2cc(F)c([N+](=O)[O-])cc2[N+](=O)[O-])cc1"
measured_attribute = "inhibition"
measurement = 75

[[record]]
item_smiles = "COC(=O)c1ccc(CN(CCCc2c(N)nc(N)nc2O)c2cc(F)c(F)cc2[N+](=O)[O-])cc1"
measured_attribute = "inhibition"
measurement = 94

[[record]]
item_smiles = "COC(=O)c1ccc(CN(CCCc2c(N)nc(N)nc2O)c2ccc([N+](=O)[O-])c(F)c2F)cc1"
measured_attribute = "inhibition"
measurement = 96


----------
Recorded inhibition, one value per entry.
Biological target: Trifunctional purine biosynthetic protein adenosine-3 (Homo sapiens)
Sequence (whole entry): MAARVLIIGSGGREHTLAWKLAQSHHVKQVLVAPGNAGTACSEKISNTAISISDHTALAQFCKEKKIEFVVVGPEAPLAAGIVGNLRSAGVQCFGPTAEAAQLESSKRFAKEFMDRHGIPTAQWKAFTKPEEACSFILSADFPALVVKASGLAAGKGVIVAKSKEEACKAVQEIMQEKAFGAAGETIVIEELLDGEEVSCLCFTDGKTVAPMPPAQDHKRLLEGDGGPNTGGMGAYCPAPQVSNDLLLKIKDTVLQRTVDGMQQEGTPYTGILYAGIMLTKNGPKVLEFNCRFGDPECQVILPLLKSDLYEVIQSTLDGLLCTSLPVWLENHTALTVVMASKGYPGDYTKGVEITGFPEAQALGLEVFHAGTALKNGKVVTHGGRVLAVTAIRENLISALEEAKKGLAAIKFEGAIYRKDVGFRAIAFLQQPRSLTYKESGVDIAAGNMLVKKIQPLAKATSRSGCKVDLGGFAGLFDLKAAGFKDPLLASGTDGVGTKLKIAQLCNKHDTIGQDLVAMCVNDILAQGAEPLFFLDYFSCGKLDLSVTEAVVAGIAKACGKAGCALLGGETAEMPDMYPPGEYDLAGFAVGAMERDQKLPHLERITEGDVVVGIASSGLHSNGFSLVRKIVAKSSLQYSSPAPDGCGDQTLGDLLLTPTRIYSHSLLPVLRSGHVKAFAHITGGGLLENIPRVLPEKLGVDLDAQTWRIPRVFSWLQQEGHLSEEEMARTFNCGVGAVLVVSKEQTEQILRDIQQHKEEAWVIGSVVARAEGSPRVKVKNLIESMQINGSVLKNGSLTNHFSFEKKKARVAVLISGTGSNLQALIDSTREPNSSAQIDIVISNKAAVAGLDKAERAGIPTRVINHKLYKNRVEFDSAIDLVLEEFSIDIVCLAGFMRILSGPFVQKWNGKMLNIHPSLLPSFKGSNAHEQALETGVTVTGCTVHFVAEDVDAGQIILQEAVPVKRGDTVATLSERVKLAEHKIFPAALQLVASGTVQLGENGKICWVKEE
Test: In vitro inhibitory activity against Glycinamide ribonucleotide transformylase (GAR Tfase+GAR) pre-incubation of 6 hr at 250 uM concentration
measured attribute: inhibition (%)

[[record]]
item_smiles = "COC(=O)c1ccc(CN(CCc2c(N)nc(N)nc2O)c2cc(F)cc(F)c2[N+](=O)[O-])cc1"
measurement = 30

[[record]]
item_smiles = "COC(=O)c1ccc(CN(CCc2c(N)nc(N)nc2O)c2cc(F)c([N+](=O)[O-])cc2[N+](=O)[O-])cc1"
measurement = 27

[[record]]
item_smiles = "COC(=O)c1ccc(CN(CCCc2c(N)nc(N)nc2O)c2cc(F)ccc2[N+](=O)[O-])cc1"
measurement = 8


----------
tested on: CCRF-CEM; assay: Cytotoxicity in the absence of thymidine and hypoxanthine against CCRF-CEM cell line; type: functional, cell-based; conditions: Homo sapiens
Each entry below carries its recorded log10 of IC50.
measured attribute: log10 of IC50 (log10 of the value in µM)

[[record]]
molecule = "Nc1nc(N)c(CCNc2cc(F)c(F)cc2[N+](=O)[O-])c(O)n1"
measurement = 1.74

[[record]]
molecule = "Nc1nc(N)c(CCCNc2cc(F)cc(F)c2[N+](=O)[O-])c(O)n1"
measurement = 1.99

[[record]]
molecule = "Nc1nc2c(c(=O)[nH]1)C[C@@H](CCc1ccc(C(=O)N[C@@H](CCC(=O)O)C(=O)O)cc1)CN2 [LOMETREXOL]"
measurement = -0.89

[[record]]
molecule = "Nc1nc(N)c(CCCNc2cc(F)c([N+](=O)[O-])cc2[N+](=O)[O-])c(O)n1"
measurement = 0.00

[[record]]
molecule = "Nc1nc(N)c(CCCNc2cc(F)c(F)cc2[N+](=O)[O-])c(O)n1"
measurement = 1.99

[[record]]
molecule = "COC(=O)c1ccc(CN(CCCc2c(N)nc(N)nc2O)c2ccc([N+](=O)[O-])c(F)c2F)cc1"
measurement = 1.61

[[record]]
molecule = "COC(=O)c1ccc(CN(CCCc2c(N)nc(N)nc2O)c2cc(F)c(F)cc2[N+](=O)[O-])cc1"
measurement = 1.77

